Readings of pIC50 for the listed molecules
measurement-target: UniProtKB P31751
Sequence (P31751 whole entry): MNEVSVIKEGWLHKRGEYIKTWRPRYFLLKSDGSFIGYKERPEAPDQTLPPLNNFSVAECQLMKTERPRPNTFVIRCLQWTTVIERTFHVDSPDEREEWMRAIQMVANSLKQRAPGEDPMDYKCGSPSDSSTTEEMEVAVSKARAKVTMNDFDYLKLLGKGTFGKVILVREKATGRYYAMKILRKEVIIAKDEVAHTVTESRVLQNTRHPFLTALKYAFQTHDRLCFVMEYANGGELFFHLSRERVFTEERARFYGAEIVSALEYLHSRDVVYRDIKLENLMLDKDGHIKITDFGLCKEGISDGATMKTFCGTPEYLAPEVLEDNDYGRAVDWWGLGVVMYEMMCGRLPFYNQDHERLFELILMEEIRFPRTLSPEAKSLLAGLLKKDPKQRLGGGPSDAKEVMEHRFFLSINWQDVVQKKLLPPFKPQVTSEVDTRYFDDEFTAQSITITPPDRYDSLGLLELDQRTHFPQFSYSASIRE
protocol-text: Live cell target engagement by NanoBRET competitive probe displacement, AKT2
condition-parameters: transfected HEK293 cells, 2 h at 37° C., read-out: AKT2 IC50: GeoMean IC50
pIC50: −log10 of the molar value.

molecule	measurement-target	pIC50
Nc1ncccc1-c1nc2ccc(-c3cn[nH]c3)nc2n1-c1ccc2c(c1)CC[C@@H]2NC(=O)c1ccc(O)c(C=O)c1 [Example 67]	UniProtKB P31751	5.70 to 7.00

Data request, read-out pIC50, for COc1cnc(-c2ccc3nc(-c4cccnc4N)n(-c4ccc5c(c4)CC[C@@H]5NC(=O)c4ccc(O)c(C=O)c4)c3n2)cn1 [Example 71]
5.70 to 7.00

Data request, read-out pIC50, for Nc1ncccc1-c1nc2c(C(F)F)cc(-n3cccn3)nc2n1-c1ccc2c(c1)CC[C@@H]2NC(=O)c1ccc(O)c(C=O)c1 [Example 245]
5.70 to 7.00

Data request, read-out pIC50, for Nc1ncccc1-c1nc2c(N3CCOCC3)cc(-n3cccn3)nc2n1-c1ccc2c(c1)CC[C@@H]2NC(=O)c1ccc(O)c(C=O)c1 [Example 224]
5.70 to 7.00

Data request, read-out pIC50, for CN1CCN(c2cccc(-c3ccc4nc(-c5cccnc5N)n(-c5ccc6c(c5)CC[C@@H]6NC(=O)c5ccc(O)c(C=O)c5)c4n3)c2)CC1 [Example 19]
> 8.00

Data request, read-out pIC50, for Nc1ncccc1-c1nc2ccc(-n3ccc(N4CCC4)n3)nc2n1-c1ccc2c(c1)CC[C@@H]2NC(=O)c1ccc(O)c(C=O)c1 [Example 156]
7.00 to 8.00

Data request, read-out pIC50, for Nc1ncccc1-c1nc2ccc(-c3ccccc3)nc2n1-c1ccc2c(c1)CC[C@@H]2NC(=O)c1cc(C=O)c(O)cc1Cl [Example 34]
5.70 to 7.00

Data request, read-out pIC50, for Nc1ncccc1-c1nc2ccc(-n3cccn3)nc2n1-c1ccc2c(c1)CC[C@@H]2NC(=O)c1ccc(O)c(C=O)c1 [Example 33]
5.70 to 7.00

Data request, read-out pIC50, for Nc1ncccc1-c1nc2ccc(-n3cccn3)nc2n1-c1ccc2c(c1)CC(F)[C@@H]2NC(=O)c1cc(C=O)c(O)cc1F (single isomer, unassigned) [Example 258]
7.00 to 8.00

Data request, read-out pIC50, for Nc1ncccc1-c1nc2ccc(-c3ccccc3)nc2n1-c1ccc2c(c1)CC[C@@H]2NCCc1ccc(C=O)c(O)c1 [Example 4]
5.70 to 7.00

Data request, read-out pIC50, for Nc1ncccc1-c1nc2ccc(-c3ccccc3)nc2n1-c1ccc2c(c1)CC[C@@H]2NC(=O)c1ccc(C=O)c(O)c1F [Example 31]
5.70 to 7.00

Data request, read-out pIC50, for CS(=O)(=O)Nc1ncc(C(=O)N[C@H]2CCc3cc(-n4c(-c5cccnc5N)nc5ccc(-n6cccn6)nc54)ccc32)cc1C=O [Example 111]
≤ 5.70

Data request, read-out pIC50, for Nc1ncccc1-c1nc2ccc(-n3cccn3)nc2n1-c1ccc2c(c1)CC[C@@H]2NC(=O)c1cc(C=O)c(O)c2scnc12 [Example 242]
≤ 5.70

Data request, read-out pIC50, for Nc1ncccc1-c1nc2c(N3CCC3)cc(-n3cccn3)nc2n1-c1ccc2c(c1)CC[C@@H]2NC(=O)c1ccc(O)c(C=O)c1 [Example 231]
5.70 to 7.00

Data request, read-out pIC50, for Nc1ncccc1-c1nc2ccc(-c3ccccc3)nc2n1-c1ccc2c(c1)CC[C@@H]2NC(=O)c1cc(C=O)c(O)c(F)c1F [Example 22]
7.00 to 8.00
